Biological target: PD-1-Ig binding to PD-L1-TVMV-His (PD-L1-His) (Homo sapiens)
Construct: hPDL1(19-239)-TVMV-His; made in house; host or cells: HEK293T cells
Test: PD-1/PD-L1 Homogenous Time-Resolved Fluorescence (HTRF) binding assay
Conditions: PD-1-Ig (20 nM) / PD-L1-His (10 nM); range classes
Each entry below lists one item and its recorded IC50 value.

[[record]]
smilestext = "CCCC[C@H]1C(=O)N(C)[C@@H](CCCC)C(=O)N[C@@H](CC(C)C)C(=O)N[C@H](C(N)=O)CNCC(=O)N[C@@H](Cc2ccc(OC)cc2)C(=O)N2CCCC[C@H]2C(=O)N[C@@H](CC(N)=O)C(=O)N2CCC[C@H]2C(=O)N[C@@H](CN)C(=O)N[C@@H](CC(C)C)C(=O)N2C[C@H](O)C[C@H]2C(=O)N[C@@H](Cc2c[nH]c3ccccc23)C(=O)N[C@@H](CCN)C(=O)N[C@@H](Cc2cn(CC(=O)O)c3ccccc23)C(=O)N1C"
measuredresult = "10 to 99 nM"


The record that follows has no IC50 shown yet.
Return the recorded IC50 value; entry: CCCC[C@H]1C(=O)N(C)[C@@H](CCCC)C(=O)N[C@@H](CCC(=O)O)C(=O)N[C@H](C(N)=O)CNCC(=O)N[C@@H](Cc2ccc(F)cc2)C(=O)N2CCCC[C@H]2C(=O)N[C@@H](CC(N)=O)C(=O)N2CCC[C@H]2C(=O)N[C@@H](Cc2c[nH]cn2)C(=O)N[C@@H](CC(=O)O)C(=O)N2C[C@H](O)C[C@H]2C(=O)N[C@@H](Cc2c[nH]c3ccccc23)C(=O)N[C@@H](C)C(=O)N[C@@H](Cc2cn(CC(=O)O)c3ccccc23)C(=O)N1C 1 to 9.9 nM

###

Target: PD-1-Ig binding to PD-L1-TVMV-His (PD-L1-His) (Homo sapiens, UniProt Q9NZQ7)
Construct: hPDL1(19-239)-TVMV-His; made in house; host or cells: HEK293T cells
Sequence (Q9NZQ7 with tags, fused parts or gaps): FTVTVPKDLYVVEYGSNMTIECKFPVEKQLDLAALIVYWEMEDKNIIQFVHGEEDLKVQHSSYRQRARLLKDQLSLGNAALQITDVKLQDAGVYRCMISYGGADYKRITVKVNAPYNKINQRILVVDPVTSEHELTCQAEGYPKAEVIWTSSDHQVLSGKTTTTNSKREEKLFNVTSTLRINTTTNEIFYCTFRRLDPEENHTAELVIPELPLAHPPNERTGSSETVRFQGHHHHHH
Assay: PD-1/PD-L1 Homogenous Time-Resolved Fluorescence (HTRF) binding assay
Conditions: PD-1-Ig (20 nM) / PD-L1-His (10 nM); range classes
Non-standard residues stand in square brackets, D forms with d. Residues, ends and D or L forms follow the SMILES beside them. Trp(1-CH2COOH) = N[C@@H](Cc1cn(CC(=O)O)c2ccccc12)C(=O)O; Phe(4-Me) = Cc1ccc(C[C@H](N)C(=O)O)cc1; Hyp = O=C(O)[C@@H]1C[C@@H](O)CN1; NMeNle = CCCC[C@H](NC)C(=O)O; Pip = O=C(O)[C@@H]1CCCCN1; Dab = NCC[C@H](N)C(=O)O; Dap = NC[C@H](N)C(=O)O; Ava = NCCCCC(=O)O
Each entry below lists one item and its recorded IC50 value.

[[record]]
compound = "CCCC[C@H]1C(=O)N(C)[C@@H](CCCC)C(=O)N[C@@H](CC(C)C)C(=O)NCCCCC(=O)N[C@@H](Cc2ccc(C)cc2)C(=O)N2CCCC[C@H]2C(=O)N[C@@H](CC(N)=O)C(=O)N2CCC[C@H]2C(=O)N[C@@H](CN)C(=O)N[C@@H](CCC(=O)O)C(=O)N2C[C@H](O)C[C@H]2C(=O)N[C@@H](Cc2c[nH]c3ccccc23)C(=O)N[C@@H](CCN)C(=O)N[C@@H](Cc2cn(CC(=O)O)c3ccccc23)C(=O)N1C [Example 10541] (cyclo([Ava][Phe(4-Me)][Pip]NP[Dap]E[Hyp]W[Dab][Trp(1-CH2COOH)][NMeNle][NMeNle]L))"
measuredresult = "1 to 9.9 nM"


The record that follows has no IC50 shown yet.
Return the recorded IC50 value; entry: CCCC[C@H]1C(=O)N(C)[C@@H](CCCC)C(=O)N[C@@H](CC(C)C)C(=O)NCCCCC(=O)N[C@@H](Cc2ccc(OC)cc2)C(=O)N2CCCC[C@H]2C(=O)N[C@@H](CC(N)=O)C(=O)N2CCC[C@H]2C(=O)N[C@@H](CN)C(=O)N[C@@H](CC(C)C)C(=O)N2C[C@H](O)C[C@H]2C(=O)N[C@@H](Cc2c[nH]c3ccccc23)C(=O)N[C@@H](CCN)C(=O)N[C@@H](Cc2cn(CC(=O)O)c3ccccc23)C(=O)N1C [Example 10535] (cyclo([Ava]Y(Me)[Pip]NP[Dap]L[Hyp]W[Dab][Trp(1-CH2COOH)][NMeNle][NMeNle]L)) 1 to 9.9 nM

###

Target: PD-1-Ig binding to PD-L1-TVMV-His (PD-L1-His) (Homo sapiens, UniProt Q9NZQ7)
Construct: hPDL1(19-239)-TVMV-His; made in house; host or cells: HEK293T cells
Test: PD-1/PD-L1 Homogenous Time-Resolved Fluorescence (HTRF) binding assay
Settings: PD-1-Ig (20 nM) / PD-L1-His (10 nM); range classes
Non-standard residues stand in square brackets, D forms with d. Residues, ends and D or L forms follow the SMILES beside them. Trp(1-CH2COOH) = N[C@@H](Cc1cn(CC(=O)O)c2ccccc12)C(=O)O; Hyp = O=C(O)[C@@H]1C[C@@H](O)CN1; NMeNle = CCCC[C@H](NC)C(=O)O; Pip = O=C(O)[C@@H]1CCCCN1; NMeA = CN[C@@H](C)C(=O)O; Dab = NCC[C@H](N)C(=O)O; Dap = NC[C@H](N)C(=O)O; Ava = NCCCCC(=O)O; GABA = NCCCC(=O)O
readoutType: IC50

Some compounds with recorded IC50:
[[record]]
compound = "CCCC[C@H]1C(=O)N(C)[C@@H](CCCC)C(=O)N[C@@H](CC(C)C)C(=O)N[C@H](C(=O)NCC(N)=O)CNCC(=O)N[C@@H](Cc2ccc(OC)cc2)C(=O)N(C)[C@@H](C)C(=O)N[C@@H](CC(N)=O)C(=O)N2CCC[C@H]2C(=O)N[C@@H](CN)C(=O)N[C@@H](CCC(=O)O)C(=O)N2C[C@H](O)C[C@H]2C(=O)N[C@@H](Cc2c[nH]c3ccccc23)C(=O)N[C@@H](CCN)C(=O)N[C@@H](Cc2cn(CC(=O)O)c3ccccc23)C(=O)N1C"
measuredresult = "1 to 9.9 nM"

[[record]]
compound = "CCCC[C@H]1C(=O)N(C)[C@@H](CCCC)C(=O)N[C@@H](CC(C)C)C(=O)NCCCC(=O)NCC(=O)N[C@@H](Cc2ccc(O)cc2)C(=O)N(C)[C@@H](C)C(=O)N[C@@H](CC(N)=O)C(=O)N2CCC[C@H]2C(=O)N[C@@H](Cc2c[nH]cn2)C(=O)N[C@@H](CC(C)C)C(=O)N2C[C@H](O)C[C@H]2C(=O)N[C@@H](Cc2c[nH]c3ccccc23)C(=O)NCC(=O)N[C@@H](Cc2c[nH]c3ccccc23)C(=O)N1C [Example 5005] (cyclo(GW[NMeNle][NMeNle]L[GABA]GY[NMeA]NPHL[Hyp]W))"
measuredresult = "100 to 10000 nM"

[[record]]
compound = "CCCC[C@H]1C(=O)N(C)[C@@H](CCCC)C(=O)NC(CC(C)C)C(=O)N[C@H](C(=O)NCC(N)=O)CNCC(=O)N[C@@H](Cc2ccc(O)cc2)C(=O)N(C)[C@@H](C)C(=O)N[C@@H](CC(N)=O)C(=O)N2CCC[C@H]2C(=O)N[C@@H](CN)C(=O)N[C@@H](CC(C)C)C(=O)N2C[C@H](O)C[C@H]2C(=O)N[C@@H](Cc2c[nH]c3ccccc23)C(=O)N[C@@H](CCN)C(=O)N[C@@H](Cc2cn(CC(=O)O)c3ccccc23)C(=O)N1C (stereo partly drawn)"
measuredresult = "1 to 9.9 nM"

[[record]]
compound = "CCCC[C@H]1C(=O)N(C)[C@@H](CCCC)C(=O)N[C@@H](CC(C)C)C(=O)N[C@H](C(N)=O)CNCC(=O)N[C@@H](Cc2ccc(F)cc2)C(=O)N2CCCC[C@H]2C(=O)N[C@@H](CC(=O)O)C(=O)N2CCC[C@H]2C(=O)N[C@@H](CCC(N)=O)C(=O)N[C@@H](CC(C)C)C(=O)N2C[C@H](O)C[C@H]2C(=O)N[C@@H](Cc2c[nH]c3ccccc23)C(=O)N[C@@H](CC(N)=O)C(=O)N[C@@H](Cc2cn(CC(=O)O)c3ccccc23)C(=O)N1C"
measuredresult = "1 to 9.9 nM"


Return the recorded IC50 value; entry: CCCC[C@H]1C(=O)N(C)[C@@H](CCCC)C(=O)N[C@@H](CC(C)C)C(=O)N[C@H](C(=O)NCC(N)=O)CNCC(=O)N[C@@H](Cc2ccc(O)cc2)C(=O)N(C)[C@@H](C)C(=O)N[C@@H](CC(N)=O)C(=O)N2CCC[C@H]2C(=O)N[C@@H](Cc2cnc[nH]2)C(=O)N[C@@H](CCC(N)=O)C(=O)N2C[C@H](O)C[C@H]2C(=O)N[C@@H](Cc2c[nH]c3ccccc23)C(=O)N[C@@H](CO)C(=O)N[C@@H](Cc2c[nH]c3ccccc23)C(=O)N1C 1 to 9.9 nM

Return the recorded IC50 value; entry: CCCC[C@H]1C(=O)N(C)[C@@H](CCCC)C(=O)N[C@@H](CC(C)C)C(=O)NCC(=O)NCC(=O)N[C@@H](Cc2ccc(O)cc2)C(=O)N(C)[C@@H](C)C(=O)N[C@@H](CC(N)=O)C(=O)N2CCC[C@H]2C(=O)N[C@@H](CN)C(=O)N[C@@H](CC(C)C)C(=O)N2C[C@H](O)C[C@H]2C(=O)N[C@@H](Cc2c[nH]c3ccccc23)C(=O)N[C@@H](CCN)C(=O)N[C@@H](Cc2cn(CC(=O)O)c3ccccc23)C(=O)N1C [Example 5002] (cyclo([Dab][Trp(1-CH2COOH)][NMeNle][NMeNle]LGGY[NMeA]NP[Dap]L[Hyp]W)) 1 to 9.9 nM

Return the recorded IC50 value; entry: CCCC[C@H]1C(=O)N(C)[C@@H](CCCC)C(=O)N[C@@H](CC(C)C)C(=O)NCCCCC(=O)N[C@@H](Cc2ccc(OC)cc2)C(=O)N2CCCC[C@H]2C(=O)N[C@@H](CC(N)=O)C(=O)N2CCC[C@H]2C(=O)N[C@@H](CN)C(=O)N[C@@H](CCC(=O)O)C(=O)N2C[C@H](O)C[C@H]2C(=O)N[C@@H](Cc2c[nH]c3ccccc23)C(=O)N[C@@H](CCN)C(=O)N[C@@H](Cc2cn(CC(=O)O)c3ccccc23)C(=O)N1C [Example 10542] (cyclo([Ava]Y(Me)[Pip]NP[Dap]E[Hyp]W[Dab][Trp(1-CH2COOH)][NMeNle][NMeNle]L)) 1 to 9.9 nM

Return the recorded IC50 value; entry: CCCC[C@H]1C(=O)N(C)[C@@H](CCCC)C(=O)N[C@@H](CCC(=O)O)C(=O)N[C@H](C(N)=O)CNCC(=O)N[C@@H](Cc2ccc(O)cc2)C(=O)N2CCCC[C@H]2C(=O)N[C@@H](CC(N)=O)C(=O)N2CCC[C@H]2C(=O)N[C@@H](Cc2c[nH]cn2)C(=O)N[C@@H](CC(=O)O)C(=O)N2C[C@H](O)C[C@H]2C(=O)N[C@@H](Cc2c[nH]c3ccccc23)C(=O)N[C@@H](C)C(=O)N[C@@H](Cc2cn(CC(=O)O)c3ccccc23)C(=O)N1C 1 to 9.9 nM

Return the recorded IC50 value; entry: CCCC[C@H]1C(=O)N(C)[C@@H](CCCC)C(=O)N[C@@H](CC(C)C)C(=O)N[C@H](C(N)=O)CNCC(=O)N[C@@H](Cc2ccc(F)cc2)C(=O)N2CCCC[C@H]2C(=O)N[C@@H](CC(N)=O)C(=O)N2CCC[C@H]2C(=O)N[C@@H](CCC(N)=O)C(=O)N[C@@H](CC(C)C)C(=O)N2C[C@H](O)C[C@H]2C(=O)N[C@@H](Cc2c[nH]c3ccccc23)C(=O)N[C@@H](CC(N)=O)C(=O)N[C@@H](Cc2cn(CC(=O)O)c3ccccc23)C(=O)N1C 10 to 99 nM
